- Method Description: Acid dissociation constant (pKa) of amine compound, acid-base titration
- Experimental Conditions: purified water
Reported Property: pKa
Give the figure by itself; no unit, no explanation.

Compound | Reported Property | Experimental Result
NCCN1CCNCC1 | pKa | 8.9

Now take the following compound into account.
Tell us which pKa value is on record for CC1(C)CC(N)CC(C)(CN)C1 (centres unmarked)
10.4

* * *

Recorded Amine value, one value per entry.
- Method Description: Amine value of amine compound (JIS K7237-1995 titration)
- Format: physicochemical
- Experimental Conditions: 0.1 N perchloric acid-acetic acid titration
Field format: number, assumed mg KOH/g, no unit text.

// known answers, use as guide
Molecule | Amine value / mg KOH/g
NCCN1CCNCC1 [AEP, N-(2-aminoethyl)piperazine] | 1303
NC1CCC(CC2CCC(N)CC2)CC1 (centres unmarked) [PACM, 4,4′-methylenebis(cyclohexylamine)] | 533
NCc1cccc(CN)c1 [MXDA, metaxylylenediamine] | 824
NCC1CCCC(CN)C1 (centres unmarked) [1,3-BAC, 1,3-bis(aminomethyl)cyclohexane] | 789

Now take the following molecule into account.
Tell us which Amine value value is on record for CC1(C)CC(N)CC(C)(CN)C1 (centres unmarked) [IPDA, isophoronediamine]
659

Hello, the source for this data is patent US20240301156A1, in case you need it.
